Where these numbers come from: PubChem BioAssay AID777

List of inhibition values.
Test target: Cytochrome P450 2C9 (Homo sapiens)
Assay protocol: blockers of cytochrome P450 2C9 activity – biochemical, luminescence, ADME assay, primary screen (AID 777)
Setup conditions: CYP2C9 Supersomes, luciferin-H conversion, at 5 µM, hits give high values
Out of some 96,000 compounds screened, about 19,000 (20%) were called active. These entries were drawn from the full list.
Record the value in %, omitting the unit from your answer.

1. O=c1ccn(Cc2ccccc2Cl)cc1 : -5.8
2. Cc1ccnc(N2C(=O)c3ccccc3C2Nc2ccc3c(c2)OCCO3)c1 (configuration not stated) : 71
3. Cc1ccc(S(=O)(=O)NCC(C)NS(C)(=O)=O)cc1 (configuration not stated) : 60.2

-- ask If you can, please state the reported inhibition value of COCCCNC(=O)CCc1nc2cccnc2n1Cc1ccc(OC)cc1 .
-- reply -1.2

-- ask Another compound: Cc1ccc(CNC(=O)CCCNC(=O)c2ccc(Cl)cc2)n1C
-- reply 80.5

-- ask Now consider CCn1c(COc2cccc(OC)c2)nnc1SCC(=O)N1CCOCC1 .
-- reply 15.4

-- ask Please answer likewise for c1cnc(NC2C3CC4CC(C3)CC2C4)nc1 (configuration not stated)
-- reply 25.9

-- ask Would you kindly repeat that for COc1ccc(OC)c(CN2C(=O)CCC2(C)C(=O)NC2CCCCCC2)c1 (configuration not stated) ?
-- reply 30

-- ask How about this compound: COc1cc2[nH]c(=O)n(CCC(=O)NC3CCN(Cc4ccccc4)CC3)c(=O)c2cc1OC
-- reply -15.4

* * *

A collection of compounds and their measured inhibition
Test target: Cytochrome P450 2C9 (Homo sapiens)
Assay protocol: blockers of cytochrome P450 2C9 activity – biochemical, luminescence, ADME assay, primary screen (AID 777)
Setup conditions: CYP2C9 Supersomes, luciferin-H conversion, at 5 µM, hits give high values
Hit rate of the full screen: of about 96,000 compounds, about 19,000 (20%) were called active. The list is a sample of the results.
Express your answer in %, writing the number without its unit.

A selection of reference data follows.
1. O=C(Nc1ccc2c(c1)OCCO2)c1cnccn1 : 4.9
2. Nn1c(Cc2cccc3ccccc23)nnc1SCC(=O)N1CC(=O)Nc2ccccc21 : -64.6
3. Cc1ccc(C(=O)Nc2ccc3c(c2)OCO3)cc1S(=O)(=O)N1CCCCC1 : 93.3
4. O=C(CSc1nnc(-c2cccs2)n1Cc1ccccc1)N1CCc2ccccc2C1 : 48
5. O=C(Nc1ccc2c(c1)OCCO2)c1ccc(Cl)c(S(=O)(=O)N2CCCCC2)c1 : 97.2

Below: the item to evaluate.
-- ask Look at this compound and give its reported inhibition. O=C(Nc1ccc2c(c1)OCCO2)c1ccncc1
-- reply 46.2

* * *

Test target: Cytochrome P450 2C9 (Homo sapiens) (UniProt P11712)
Sequence (P11712 whole entry, looked up): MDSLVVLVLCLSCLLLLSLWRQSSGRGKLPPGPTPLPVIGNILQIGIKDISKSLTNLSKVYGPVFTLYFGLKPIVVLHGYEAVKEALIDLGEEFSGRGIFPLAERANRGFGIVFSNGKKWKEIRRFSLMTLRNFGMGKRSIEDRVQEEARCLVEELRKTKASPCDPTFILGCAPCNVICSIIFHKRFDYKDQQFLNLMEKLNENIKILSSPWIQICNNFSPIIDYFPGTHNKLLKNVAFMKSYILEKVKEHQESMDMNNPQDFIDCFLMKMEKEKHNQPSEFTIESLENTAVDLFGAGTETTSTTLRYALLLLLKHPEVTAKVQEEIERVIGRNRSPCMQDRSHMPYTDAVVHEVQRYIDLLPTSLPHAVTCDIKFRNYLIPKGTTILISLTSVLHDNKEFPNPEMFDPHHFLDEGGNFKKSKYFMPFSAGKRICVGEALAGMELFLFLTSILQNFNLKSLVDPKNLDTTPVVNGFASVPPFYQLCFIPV
Assay protocol: blockers of cytochrome P450 2C9 activity – biochemical, luminescence, ADME assay, primary screen (AID 777)
Setup conditions: CYP2C9 Supersomes, luciferin-H conversion, at 5 µM, hits give high values
The campaign covered roughly 96,000 compounds. About 19,000 (20%) were called active. The list is a sample of the results.
Measured attribute: inhibition

Consider the reported inhibition for these molecules:
1) O=c1cc(CO)oc(CN2CCC(Cc3ccccc3)CC2)c1O : 4.2% (inactive)
2) Cc1ccc(C(=O)Nc2ccccc2C(=O)NC2CCCCC2)cc1S(=O)(=O)N1CCOCC1 : 23.7% (inactive)
3) CSCc1cc(N(C)C)nc(SCc2ccc(Cl)cc2Cl)n1 : 56.7% (active)
4) CC(=O)c1c(N2CCOCC2)nc(=S)n(-c2cc(C)ccc2C)c1C : -8.6% (inactive)
5) CCCC(=O)Nc1c(O)c2ccccc2[nH]c1=O : 5.2% (inactive)
6) N#C/C(=C1\CCCN1)c1nc(-c2ccccc2)cs1 : 40.4% (inactive)

-- ask inhibition for CCOC(=O)C(C)Oc1cccc2c(=O)n(CC(=O)N3CCc4ccccc43)ccc12 (stereo not given) ?
-- reply 9% (inactive)

-- ask Follow-up entry: CCOc1ccc(NC(=O)CCS(=O)(=O)c2ccc3c(c2)CCCN3C(=O)CC)cc1
-- reply -0.4% (inactive)

-- ask Next: CCOc1nnc(C)c2c(C)n(-c3cccc(Cl)c3)nc12
-- reply 28.6% (inactive)

-- ask # iterate: CCCCC(=O)N/N=C(\C)CC(=O)Nc1cc(Cl)ccc1OC
-- reply -51.9% (inactive)

-- ask Please answer likewise for CCCc1nc2ccccc2c(C(=O)OCc2nnc(-c3cc(OC)c(OC)c(OC)c3)o2)c1CC
-- reply 67.5% (active)

-- ask Entry Nc1nc(SCc2ccccc2Cl)n[nH]1 please
-- reply -6.7% (inactive)

-- ask Entry CCOCC(=O)Nc1cc(OC)c(Cl)cc1OC please
-- reply 13.3% (inactive)

-- ask Same read-out for Clc1ccc(CSc2nnc(/C=C/c3ccccc3)o2)c(Cl)c1 ?
-- reply 49.9% (inactive)

-- ask Another molecule to look at: CCN(CC)C(=O)CSc1nnc(C2CCCCC2)o1
-- reply 5.7% (inactive)

-- ask For COc1ccc(Oc2coc3cc(OC(=O)c4cncc(Br)c4)ccc3c2=O)cc1 then?
-- reply -54.5% (inactive)

-- ask // same read-out, input: CCOC(=O)c1sc2nc(CSCC(=O)OCc3ccc(C(=O)OC)o3)[nH]c(=O)c2c1C
-- reply 54.4% (active)

-- ask Please give the result for CCCc1nc2ccccc2c(C(=O)OCC(=O)c2ccc3c(c2)NC(=O)CO3)c1CC too.
-- reply -20.4% (inactive)

-- ask And Cc1cc2cc(CNC(=O)c3cccs3)ccc2[nH]1 ?
-- reply 60.2% (active)

-- ask // same read-out, input: N#CC(=C1CCCC1)c1nc(-c2ccc(Cl)cc2)cs1
-- reply -6.8% (inactive)

-- ask Input Cc1cc(-c2ccccc2)n2nc(C)c(-c3ccccc3)c2n1
-- reply -9.3% (inactive)

-- ask Follow-up item: Cc1nc2c(-c3ccc(F)cc3)c(C)nn2c(C)c1CCC(=O)N1CCN(c2ccccn2)CC1
-- reply 13.1% (inactive)
